FYI, the data here is from patent US6538137B1.

# Test System: human FXa (Homo sapiens, UniProt P00742)
# Sequence (P00742 235-488 limits assumed): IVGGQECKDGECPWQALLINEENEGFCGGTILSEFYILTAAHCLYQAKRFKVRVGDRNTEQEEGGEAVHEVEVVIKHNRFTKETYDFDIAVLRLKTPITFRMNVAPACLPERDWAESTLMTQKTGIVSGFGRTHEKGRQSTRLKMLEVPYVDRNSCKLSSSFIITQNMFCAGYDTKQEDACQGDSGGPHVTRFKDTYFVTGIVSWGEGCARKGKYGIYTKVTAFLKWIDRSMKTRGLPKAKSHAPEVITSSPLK
# Sequence (P00742 41-179 partner limits assumed): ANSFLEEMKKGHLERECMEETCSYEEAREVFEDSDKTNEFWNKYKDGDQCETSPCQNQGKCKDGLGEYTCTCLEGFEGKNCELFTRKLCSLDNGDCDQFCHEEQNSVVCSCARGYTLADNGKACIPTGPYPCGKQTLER
# Assay Protocol: Determination of inhibitory activity of activated blood coagulation factor X (FXa)
# Measurement Context: substrate S-2765, Tris buffer pH 8.4, incubation 30 minutes, absorbance A405; read-out: FXa inhibitory activity, 50% inhibitory activity (IC50)
pIC50: −log10 of the molar value.
Measurement Kind: pIC50

Recorded pIC50, per entry:
COC(=O)c1cc(COCC2CCN(C(C)=N)CC2)cc(-c2cccc(C(=N)N)c2)c1 [Reference Example 7]
7.00 to 8.00
CC(C)N1CCC(COCc2cc(C(=O)O)cc(-c3cccc(C(=N)N)c3)c2)CC1
6.00 to 7.00
COC(=O)c1cc(COCC2CCN(C(C)C)CC2)cc(-c2cccc(C(=N)N)c2)c1 [Reference Example 4]
6.00 to 7.00
COC(=O)c1cc(COCC2CCN(C(C)=O)CC2)cc(-c2cccc(C(=N)N)c2)c1 [Reference Example 5]
6.00 to 7.00
COC(=O)c1cc(COCC2CCNCC2)cc(-c2cccc(C(=N)N)c2)c1 [Reference Example 3]
6.00 to 7.00

Request: Quote pIC50 reported for COC(=O)c1cc(CNCC2CCN(C(C)=N)CC2)cc(-c2cccc(C(=N)N)c2)c1 [Reference Example 6] please.
Result: 7.00 to 8.00
